Assembled from different publications: pKi for Carbonic anhydrase 1 (Homo sapiens).
Keep it numeric: pKi is minus log10 of the concentration in mol/L.

The following molecules have reported results that may help.
Q: Form: Entry = NS(=O)(=O)c1cccc(NC(=O)Nc2cccc(C(F)(F)F)c2)c1 | System = Carbonic anhydrase 1 (Homo sapiens) | pKi = ____
A: 5.69

Q: Form: Entry = COc1ccc(C)cc1NC(=O)Nc1ccc2c(c1)B(O)OC2 | System = Carbonic anhydrase 1 (Homo sapiens) | pKi = ____
A: 7.01

Q: Form: Entry = COc1cc(/C=C/C(=O)OCCCCO[N+](=O)[O-])ccc1OC(=O)c1ccc(S(=O)(=O)Nc2nnc(S(N)(=O)=O)s2)cc1 | System = Carbonic anhydrase 1 (Homo sapiens) | pKi = ____
A: 7.37

Q: Form: Entry = NS(=O)(=O)c1ccc(CCOC(=O)CN(CCN(CC(=O)O)CC(=O)OCCc2ccc(S(N)(=O)=O)cc2)CC(=O)O)cc1 | System = Carbonic anhydrase 1 (Homo sapiens) | pKi = ____
A: 6.35

Q: Form: Entry = COc1ccc(O)c(/C=N/c2ccc(C(=O)O)cc2)c1 | System = Carbonic anhydrase 1 (Homo sapiens) | pKi = ____
A: 5.89

Continuing:
Q: Form: Entry = CN(C)c1ccc(NS(N)(=O)=O)cc1 | System = Carbonic anhydrase 1 (Homo sapiens) | pKi = ____
A: 7.77

----------
pKi: −log10 of the molar value.
Assembled from different publications: pKi for UniProtKB P00915.

Q: Find the recorded pKi belonging to O=c1oc2ccccc2c2c1cnn2-c1ccccc1 and report it.
A: < 5.00

Q: Find the recorded pKi belonging to Cc1ccccc1-c1ccc2c(c1)C=CS(=O)(=O)O2 and report it.
A: < 5.00

Q: Find the recorded pKi belonging to O=C(Nc1ccc(I)cc1C(=O)O)c1ccc2c(c1)C(=O)OC2=O and report it.
A: < 5.00

Continuing:
Q: Find the recorded pKi belonging to O=c1ccc2ccc(OCc3cn(-c4cccc(Cl)c4)nn3)cc2o1 and report it.
A: < 5.00

Q: Find the recorded pKi belonging to O=S(=O)(N1CCOCC1)N1CCOCC1 and report it.
A: < 3.70

Q: Find the recorded pKi belonging to S=c1ccc2ccc(OCc3cn(-c4ccccc4)nn3)cc2o1 and report it.
A: < 3.70

Q: Find the recorded pKi belonging to NS(=O)(=O)c1ccc(C/N=C/c2cc(Br)ccc2OCc2cn(CCCOc3ccc4ccc(=O)oc4c3)nn2)cc1 and report it.
A: < 5.00

Q: Find the recorded pKi belonging to Cc1cc2nn(-c3ccccc3)c(C)c2c(=O)o1 and report it.
A: < 5.00

Q: Find the recorded pKi belonging to O=Cc1ccccc1OCc1cn(CCCOc2ccc3ccc(=O)oc3c2)nn1 and report it.
A: < 5.00

Q: Find the recorded pKi belonging to COC(=O)C1=Cc2ccc(OC)cc2OC(=O)C1 and report it.
A: < 4.00

----------
Assembled from different publications: Ki for Carbonic anhydrase 1 (Homo sapiens).

Q: Form: Entry = O=C(CN1C(=O)c2ccccc2S1(=O)=O)c1cccc([N+](=O)[O-])c1 | System = Carbonic anhydrase 1 (Homo sapiens) | Ki = ____
A: > 50 µM

Q: Form: Entry = O=C(Nc1ccc2c(c1)S(=O)(=O)NC2=O)c1ccccc1 | System = Carbonic anhydrase 1 (Homo sapiens) | Ki = ____
A: > 50 µM

Q: Form: Entry = COc1ccc(S(=O)(=O)N(Cc2ccccc2)C(CC(C)C)C(=O)NO)cc1 (configuration not stated) | System = Carbonic anhydrase 1 (Homo sapiens) | Ki = ____
A: > 0.2 µM

Q: Form: Entry = COc1ccc2c(c1)OS(=O)(=O)CC2 | System = Carbonic anhydrase 1 (Homo sapiens) | Ki = ____
A: > 10 µM

Q: Form: Entry = CC1(C)O[C@@H]2[C@@H](CO[C@@]3(C(=O)NS(N)(=O)=O)OC(C)(C)O[C@@H]23)O1 | System = Carbonic anhydrase 1 (Homo sapiens) | Ki = ____
A: > 100 µM

Continuing:
Q: Form: Entry = Cc1ccc(/C=N/c2ccc(S(N)(=O)=O)cc2)cc1 | System = Carbonic anhydrase 1 (Homo sapiens) | Ki = ____
A: > 50 µM

Q: Form: Entry = Cc1cc2c(c(C)nn2-c2ccccc2)c(=O)o1 | System = Carbonic anhydrase 1 (Homo sapiens) | Ki = ____
A: > 10 µM
